Values were extracted from PubChem BioAssay (NCI).

system: MDA-MB-468 breast; experiment: NCI tumour cell line growth inhibition, 48 h
Parameter: GI50. Scope: all listed entries.

{"CHEMICAL_STRING": "O=C(NC(=S)NNC(=S)NNc1ccccc1)c1ccccc1", "GI50": "8.92 µM"}
{"CHEMICAL_STRING": "Cc1ccc2c(c1)nc(-c1ccccc1)n2CC(=O)N=Nc1c(O)[nH]c2ccc(Cl)cc12", "GI50": "1.34 µM"}
{"CHEMICAL_STRING": "CNC(=O)c1cc(-n2ccc3cc(NC(=O)Nc4ccc(N5CCN(C)CC5)c(C(F)(F)F)c4)ccc32)ccn1", "GI50": "3.48 µM"}
